# credit: patent US20220031842A1

Below, each of the binders is paired with its reported pEC50 value.
Target: T1, Fusion protein of LAG-3 extracellular region and mIgG2a Fc (human)
T1 construct: Limits of the signal peptide are marked only by lost underlining; also called LAG-3-mFc; LAG-3-mFc fusion protein
T1 chain: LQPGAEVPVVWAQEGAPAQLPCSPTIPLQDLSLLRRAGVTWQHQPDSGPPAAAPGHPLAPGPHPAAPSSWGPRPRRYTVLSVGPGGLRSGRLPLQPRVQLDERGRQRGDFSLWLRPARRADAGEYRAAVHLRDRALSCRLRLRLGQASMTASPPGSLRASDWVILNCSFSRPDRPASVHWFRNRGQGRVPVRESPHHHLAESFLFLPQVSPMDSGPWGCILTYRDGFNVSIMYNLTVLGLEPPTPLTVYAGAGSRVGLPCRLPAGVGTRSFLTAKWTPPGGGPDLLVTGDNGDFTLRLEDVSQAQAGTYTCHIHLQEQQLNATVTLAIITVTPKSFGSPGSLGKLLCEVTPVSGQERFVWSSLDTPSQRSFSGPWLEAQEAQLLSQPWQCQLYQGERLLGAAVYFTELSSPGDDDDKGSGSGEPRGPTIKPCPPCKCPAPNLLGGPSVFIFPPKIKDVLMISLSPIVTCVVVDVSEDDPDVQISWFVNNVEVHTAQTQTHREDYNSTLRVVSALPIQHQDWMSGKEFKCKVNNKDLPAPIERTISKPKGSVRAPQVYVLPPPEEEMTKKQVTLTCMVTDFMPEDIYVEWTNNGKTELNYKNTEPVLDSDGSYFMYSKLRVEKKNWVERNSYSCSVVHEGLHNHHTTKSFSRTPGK
Test: ELISA, LAG-3-mFc captured by anti-mouse Fc on plate (which fusion: inferred)
The quantity pEC50 is defined as the negative base-10 logarithm of the molar concentration.

Illustrative cases are given below, each with its answer.
Hu303-016 (antibody, human IgG4 S228P, kappa, V domains shown, Humanized mAb303) VH: QVQLVQSGAEVKKPGASVKVSCKASGYTLTDYYMNWVRQAPGQRLEWMGVINPYNGDTAYNQKFKGRVTITVDKSASTAYMELSSLRSEDTAVYYCTRDDGYYDYYFDVWGQGTTVTVSS VL: DIQMTQSPSSLSASVGDRVTITCRASQDIGSRLNWYQQKPGKAPKRLIYATSTLDSGVPKRFSGSRSGTDFTLTISSLQPEDFATYYCLQLASSPPTFGGGTKVEIKR = 9.79
Hu303-014 (antibody, human IgG4 S228P, kappa, V domains shown, Humanized mAb303) VH: QVQLVQSGAEVKKPGASVKVSCKASGYTLTDYYMNWVRQAPGQRLEWMGVINPYNGDTAYNQKFKGRVTITVDKSASTAYMELSSLRSEDTAVYYCTRDDGYYDYYFDVWGQGTTVTVSS VL: DIQMTQSPSSLSASVGDRVTITCRASQDIGSRLNWYQQKPGKAPKLLIYATSTLDSGVPSRFSGSGSGTDFTLTISSLQPEDFATYYCLQLASSPPTFGGGTKVEIKR = 9.63

Value of pEC50 reported for the binder Hu229-009 (antibody, human IgG4 S228P, kappa, V domains shown, Humanized mAb229) VH: QVQLVQSGSELKKPGASVKVSCKASGYTFTTSGMSWVRQAPGQGLKWMGWINTYSGVPTYADDFKGRFVFSLDTSVSTAYLQISSLKAEDTAVYYCARDNYDARDVYYYAMDYWGQGTTVTVSS VL: DIQMTQSPSSLSASVGDRVTITCRASENIYSNLAWYQQKPGKAPKLLVYAATNLADGVPSRFSGSGSGTDYTLTISSLQPEDFATYYCQHFWITPWTFGGGTKVEIKR is 9.82
